Molecular target: T1, human GIP receptor (human) (UniProt P48546)
T1 sequence (looked up): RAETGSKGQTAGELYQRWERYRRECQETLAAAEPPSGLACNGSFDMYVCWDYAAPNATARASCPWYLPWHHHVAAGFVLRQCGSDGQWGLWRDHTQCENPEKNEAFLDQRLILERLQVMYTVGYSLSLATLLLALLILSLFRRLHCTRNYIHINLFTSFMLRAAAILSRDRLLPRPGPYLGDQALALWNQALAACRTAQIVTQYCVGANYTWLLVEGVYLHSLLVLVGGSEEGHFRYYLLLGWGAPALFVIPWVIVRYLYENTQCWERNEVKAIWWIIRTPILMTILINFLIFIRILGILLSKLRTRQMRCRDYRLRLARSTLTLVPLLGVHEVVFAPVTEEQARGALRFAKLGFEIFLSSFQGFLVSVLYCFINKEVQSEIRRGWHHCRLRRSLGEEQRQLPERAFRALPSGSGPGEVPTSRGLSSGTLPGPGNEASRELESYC
Experiment: cell-based or functional assay
Starred links: 1 amine or outer side, 2 acyl side, 3 side chain; linkers in the order of their positions; H or OH if unused. Non-standard residues stand in square brackets, D forms with d. Groups on a side chain read outwards from the residue. No end group written: not given here. *: point of attachment. C20 diacid = O=C(O)CCCCCCCCCCCCCCCCCCC(=O)*; γGlu = O=C(O)[C@H](CCC(=O)[*:2])N[*:1]; αMeL = CC(C)C[C@](C)(N)C(=O)O; AEEA = NCCOCCOCC(=O)O; Aib = CC(C)(N)C(=O)O
reported metric: Relative cAMP EC50 (nM)
Please respond with the number in nM and leave the unit unwritten.

YXQGTXTSDXSILLDKKAQXAFIEYLEEGGPSSGAPPPSGSGE (non-natural residues, C18 diacid acylation, C-terminal amide; synthetic construct; SITE 2: note = 2-Aminoisobutyric Acid; SITE 6: note = alpha-methyl-2-fluoro-L-phenylalanine; SITE 10: note = 3-(4-Pyridyl)-L-alanine; SITE 17: note = Lysine is chemically modified through conjugation of the epsilon-amino group of the Lysine side chain with (gamma-Glu)2-CO-(CH2)1) [Example 618] : 0.0418
Y[Aib]QGTFTSDYSI[αMeL]LDKQAAK([AEEA-AEEA-γGlu-C20 diacid])QFVEWLIA[Aib]GPSSGEPPPAEG-NH2 [Example 334] : 0.223

Lab note: YXQGTXTSDXSIXLDXKAQXAFIEYLEEGGPSSGAPPPS (synthetic construct; SITE 2: note = 2-Aminoisobutyric Acid; SITE 6: note = alpha-methyl-2-fluoro-L-phenylalanine; SITE 10: note = 3-(4-Pyridyl)-L-alanine; SITE 13: note = alpha-methyl-leucine; SITE 16: note = L-ornithine; SITE 17: note = Lysine is chemically modified through conjugation of the epsil) [Example 441] gave Relative cAMP EC50 of 0.0239
